testProtocol: Drug level in Sprague-Dawley rat plasma at 2 mg/kg, iv after 30 mins
Type: ADME, organism-based
Set-up: dose 2 mg/kg, route intravenous
Reported concentration at 0.5 h values for a set of molecules
Give the quantity in nM, number only.

Exercise: Would you kindly share the measured concentration at 0.5 h for Cc1ccc(-n2nccn2)c(C(=O)N2CCCN(c3ncc4ccccc4n3)CC2)c1 ?
Key: 664

Please find the next molecule below.
Exercise: Which concentration at 0.5 h value is on record for Cc1ccc(-n2nccn2)c(C(=O)N2CC3CC(C2)N(c2ncc4ccccc4n2)C3)c1 (single isomer, unassigned; enantiomer B) ?
Key: 835

###

testProtocol: AUC (0 to 24 hrs) in rat at 10 mg/kg, po and 2 mg/kg, iv
Type: ADME, organism-based
assayContext: plasma
measuredQuantity: AUC(0-t) (µM·h)
Entry rule: numbers only, all in µM·h.

Exercise: I am curious: what AUC(0-t) value has been reported for Cc1ccc(-n2nccn2)c(C(=O)N2CC3CC(C2)N(c2ncc4ccccc4n2)C3)c1 (single isomer, unassigned; enantiomer B) ?
Key: 0.23

Moving on to the next compound.
Exercise: I'd like to know its AUC(0-t). The compound in question is Cc1ccc(-n2nccn2)c(C(=O)N2CCCN(c3ncc4ccccc4n3)CC2)c1
Key: 0.19

Values compiled from ChEMBL document CHEMBL1156317.
